List of pIC50 values.
# Test system: BJ
# ASSAY TEXT: Cytostatic activity against human BJ cells after 72 hrs by MTT assay
# Type: ADME, cell-based
pIC50: −log10 of the molar value.

Look over these answered cases.
# SMILES REPRESENTATION, MEASURED RESULT
rows = [
    ("Nc1nc2c(c(-c3cccs3)cn2[C@@H]2O[C@H](CO)[C@@H](O)[C@H]2O)c(=O)[nH]1", "< 4.00"),
    ("Cc1ncnc2c1c(-c1ccoc1)cn2[C@@H]1O[C@H](CO)[C@@H](O)[C@H]1O", 4.05),
    ("COc1ncnc2c1c(I)cn2[C@@H]1O[C@H](CO)[C@@H](O)[C@H]1O", 4.04),
    ("Nc1nc(N)c2c(-c3ccccc3)cn([C@@H]3O[C@H](CO)[C@@H](O)[C@H]3O)c2n1", "< 4.00"),
    ("CNc1ncnc2c1ccn2[C@@H]1O[C@H](CO)[C@@H](O)[C@H]1O", 4.04),
    ("O=c1[nH]cnc2c1c(-c1ccccc1)cn2[C@@H]1O[C@H](CO)[C@@H](O)[C@H]1O", "< 4.00"),
    ("Nc1nc(N)c2c(-c3ccsc3)cn([C@@H]3O[C@H](CO)[C@@H](O)[C@H]3O)c2n1", "< 4.00"),
    ("CSc1ncnc2c1ccn2[C@@H]1O[C@H](CO)[C@@H](O)[C@H]1O", "< 4.00"),
    ("Cc1ncnc2c1c(-c1cccs1)cn2[C@@H]1O[C@H](CO)[C@@H](O)[C@H]1O", "< 4.00"),
    ("O=c1[nH]cnc2c1c(-c1cc3ccccc3o1)cn2[C@@H]1O[C@H](CO)[C@@H](O)[C@H]1O", 4.20),
]

Kindly note the recorded pIC50 for `Cc1nc(N)c2c(-c3ccoc3)cn([C@@H]3O[C@H](CO)[C@@H](O)[C@H]3O)c2n1` , which is < 4.00

Kindly note the recorded pIC50 for `Cc1nc(N)c2c(-c3cc4ccccc4o3)cn([C@@H]3O[C@H](CO)[C@@H](O)[C@H]3O)c2n1` , which is < 4.00

Kindly note the recorded pIC50 for `COc1ncnc2c1c(-c1ccco1)cn2[C@@H]1O[C@H](CO)[C@@H](O)[C@H]1O` , which is 6.37

Kindly note the recorded pIC50 for `Cc1nc(N)c2ccn([C@@H]3O[C@H](CO)[C@@H](O)[C@H]3O)c2n1` , which is < 4.00

Kindly note the recorded pIC50 for `Cc1ncnc2c1c(-c1ccccc1)cn2[C@@H]1O[C@H](CO)[C@@H](O)[C@H]1O` , which is < 4.00

Kindly note the recorded pIC50 for `CN(C)c1ncnc2c1c(-c1ccsc1)cn2[C@@H]1O[C@H](CO)[C@@H](O)[C@H]1O` , which is < 4.00

Kindly note the recorded pIC50 for `COc1ncnc2c1c(-c1ccccc1)cn2[C@@H]1O[C@H](CO)[C@@H](O)[C@H]1O` , which is < 4.00

Kindly note the recorded pIC50 for `C#Cc1cn([C@@H]2O[C@H](CO)[C@@H](O)[C@H]2O)c2ncnc(OC)c12` , which is 4.01

* * *

List of EC50 values.
# Test system: Hepatitis C virus
# ASSAY TEXT: Antiviral activity against Hepatitis C virus subtype 1b infected in human HuH7 cells
# Format: functional, organism-based, Hepacivirus hominis
# PROTOCOL CONDITIONS: genotype 1b, Huh-7
Give just the number in µM; leave the unit off.

Look over these answered cases.
# SMILES REPRESENTATION, UNIT OF MEASURE, MEASURED RESULT
data = [
    ("CN(C)c1ncnc2c1c(-c1cc3ccccc3o1)cn2[C@@H]1O[C@H](CO)[C@@H](O)[C@H]1O", "µM", 19.2),
    ("CN(C)c1ncnc2c1ccn2[C@@H]1O[C@H](CO)[C@@H](O)[C@H]1O", "µM", 0.27),
]

Proceed to the following item.
Kindly note the recorded EC50 for `COc1ncnc2c1c(-c1ccsc1)cn2[C@@H]1O[C@H](CO)[C@@H](O)[C@H]1O` , which is 0.55

* * *

# Tested on: K562
# ASSAY TEXT: Cytostatic activity against paclitaxel-resistant human K562 cells after 72 hrs by MTT assay
# Format: functional, cell-based
# PROTOCOL CONDITIONS: K562, 72 h
List of IC50 values.
Give just the number in µM; leave the unit off.

Look over these answered cases.
# SMILES REPRESENTATION, IC50 (µM)
data = [
    ("COc1ncnc2c1c(-c1ccoc1)cn2[C@@H]1O[C@H](CO)[C@@H](O)[C@H]1O", 2.82),
    ("CSc1ncnc2c1c(I)cn2[C@@H]1O[C@H](CO)[C@@H](O)[C@H]1O", 7.73),
    ("Nc1nc2c(c(-c3ccsc3)cn2[C@@H]2O[C@H](CO)[C@@H](O)[C@H]2O)c(=O)[nH]1", 18.3),
]

Kindly note the recorded IC50 for `CSc1ncnc2c1c(-c1ccoc1)cn2[C@@H]1O[C@H](CO)[C@@H](O)[C@H]1O` , which is 3.25

Kindly note the recorded IC50 for `CN(C)c1ncnc2c1c(-c1ccco1)cn2[C@@H]1O[C@H](CO)[C@@H](O)[C@H]1O` , which is 1.28

Kindly note the recorded IC50 for `C#Cc1cn([C@@H]2O[C@H](CO)[C@@H](O)[C@H]2O)c2nc(C)nc(N)c12` , which is 3.29

Kindly note the recorded IC50 for `Nc1ncnc2c1c(-c1ccco1)cn2[C@@H]1O[C@H](CO)[C@@H](O)[C@H]1O` , which is 0.05

Kindly note the recorded IC50 for `COc1nc(N)nc2c1c(-c1cc3ccccc3o1)cn2[C@@H]1O[C@H](CO)[C@@H](O)[C@H]1O` , which is 15.5

Kindly note the recorded IC50 for `COc1ncnc2c1c(-c1cc3ccccc3o1)cn2[C@@H]1O[C@H](CO)[C@@H](O)[C@H]1O` , which is 13.1

* * *

List of pIC50 values.
# Test system: BJ
# ASSAY TEXT: Cytostatic activity against human BJ cells after 72 hrs by MTT assay
# Assay type: ADME, cell-based
pIC50: −log10 of the molar value.

# SMILES REPRESENTATION, TARGET, ENDPOINT NAME, MEASURED RESULT
rows = [
    ("COc1nc(N)nc2c1c(-c1ccsc1)cn2[C@@H]1O[C@H](CO)[C@@H](O)[C@H]1O", "BJ", "pIC50", "< 4.00"),
    ("CNc1ncnc2c1c(-c1ccco1)cn2[C@@H]1O[C@H](CO)[C@@H](O)[C@H]1O", "BJ", "pIC50", 5.30),
    ("COc1nc(N)nc2c1c(-c1ccoc1)cn2[C@@H]1O[C@H](CO)[C@@H](O)[C@H]1O", "BJ", "pIC50", "< 4.00"),
    ("O=c1[nH]cnc2c1c(-c1ccoc1)cn2[C@@H]1O[C@H](CO)[C@@H](O)[C@H]1O", "BJ", "pIC50", "< 4.00"),
]

Kindly note the recorded pIC50 for `Cc1nc(N)c2c(I)cn([C@@H]3O[C@H](CO)[C@@H](O)[C@H]3O)c2n1` , which is 4.61

Kindly note the recorded pIC50 for `CN(C)c1ncnc2c1ccn2[C@@H]1O[C@H](CO)[C@@H](O)[C@H]1O` , which is 5.28

Kindly note the recorded pIC50 for `CN(C)c1ncnc2c1c(-c1ccco1)cn2[C@@H]1O[C@H](CO)[C@@H](O)[C@H]1O` , which is < 4.00

Kindly note the recorded pIC50 for `O=c1[nH]cnc2c1c(-c1ccsc1)cn2[C@@H]1O[C@H](CO)[C@@H](O)[C@H]1O` , which is < 4.00

Kindly note the recorded pIC50 for `CNc1ncnc2c1c(-c1ccccc1)cn2[C@@H]1O[C@H](CO)[C@@H](O)[C@H]1O` , which is < 4.00

* * *

# Tested on: K562
# ASSAY TEXT: Cytostatic activity against paclitaxel-resistant human K562 cells after 72 hrs by MTT assay
# Type: functional, cell-based
# PROTOCOL CONDITIONS: K562, 72 h
pIC50: −log10 of the molar value.
List of pIC50 values.

# SMILES REPRESENTATION, MEASURED RESULT
records = [
    ("CNc1ncnc2c1c(-c1ccsc1)cn2[C@@H]1O[C@H](CO)[C@@H](O)[C@H]1O", "< 4.70"),
]

Kindly note the recorded pIC50 for `Cc1nc(N)c2ccn([C@@H]3O[C@H](CO)[C@@H](O)[C@H]3O)c2n1` , which is < 4.70

Kindly note the recorded pIC50 for `CNc1ncnc2c1c(I)cn2[C@@H]1O[C@H](CO)[C@@H](O)[C@H]1O` , which is < 4.70

Kindly note the recorded pIC50 for `Cc1ncnc2c1c(I)cn2[C@@H]1O[C@H](CO)[C@@H](O)[C@H]1O` , which is < 4.70

Kindly note the recorded pIC50 for `COc1ncnc2c1ccn2[C@@H]1O[C@H](CO)[C@@H](O)[C@H]1O` , which is < 4.70
